Reference source: PubChem BioAssay (NCATS)

test system: CP252; assay: qHTS profiling for inhibitors of Plasmodium falciparum proliferation (AID 504749); also: nearly all actives have a fitted effect of over 60% in size; also: potency is read from the fitted curve at half-maximal effect; settings: P. falciparum in erythrocytes, SYBR Green DNA, 72 h; series mostly up to 28.7 µM
Inconclusive results are not listed. The source made the active and inactive calls. Calls follow the shape of the dose curve; as a rule, active = well fitted inhibition curve with a large enough effect; inconclusive = small, poorly fitted or top-dose-only effect; inactive = flat fitted curve, though single readings scatter.
MEASURE_NAME: Potency

Worked set:
{"MOLECULE": "NC(CSSCC(N)C(=O)O)C(=O)O (configuration not stated)", "Potency": "inactive"}
{"MOLECULE": "CC[C@@H](C)C(N)C(=O)O (some centres not stated)", "Potency": "inactive"}
{"MOLECULE": "CC1C(=O)C(=O)C=CN1C (configuration not stated)", "Potency": "inactive"}
{"MOLECULE": "CCC(C(=O)C(C)C(O)C(C)CCc1ccc(C)c(O)c1C(=O)O)C1OC(CC)(C2CC[C@@](O)(CC)C(C)O2)CC1C (some centres not stated)", "Potency": "794 nM (active)"}
{"MOLECULE": "C[C@H](O)[C@@H]1C(=O)N2C(C(=O)O)=C(SCCN=CN)C[C@@H]12", "Potency": "inactive"}

Sample CO[C@H]1OC2O[C@@]3(C)CC[C@H]4[C@H](C)CC[C@@H]([C@H]1C)[C@@]24OO3 (some centres not stated) ; Potency observed: 31.6 nM (active)

# Potency of C=C1C(n2cnc3c(=O)[nH]c(N)nc32)C[C@H](O)[C@H]1CO (some centres not stated) = inactive

C/C1=C2/[N-]C(C(CC(N)=O)[C@@]2(C)CCC(=O)NCC(C)OP(=O)([O-])O[C@H]2[C@@H](O)[C@@H](n3cnc4cc(C)c(C)cc43)O[C@@H]2CO)[C@]2(C)N=C(/C(C)=C3N=C(/C=C4N=C1C(CCC(N)=O)C\4(C)C)[C@@H](CCC(N)=O)[C@]\3(C)CC(N)=O)[C@@H](CCC(N)=O)[C@]2(C)CC(N)=O.CC(=O)O.[Co] (some centres not stated) yielded Potency of inactive

Form: molecule = CNC1C(O)C(OC2C(NC(=O)C(O)CN)CC(N)C(OC3OC(CN)C(O)C(O)C3O)C2O)OCC1(C)O (configuration not stated) ; Potency = inactive

Per the record, `CO/N=C(/C(=O)N[C@@H]1C(=O)N2C(C(=O)O)=C(CSc3cnns3)CS[C@H]12)c1csc(N)n1` has Potency of inactive

Recorded result, CC(O)C1CCC2C3CCC4CC(O)CCC4(C)C3CCC12C (configuration not stated) , Potency: inactive

----------
assay: Stat Signaling Pathway (AID 446); conditions: ME-180 (cervical carcinoma) SIE beta-lactamase reporter, IL-6 stimulated, 5 h; at 17.2 µM (top of the series) unless noted;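 also: ME-180 cervical cancer cells given 40 pM IL-6 alongside compound; SIE-controlled beta-lactamase reporter measured as 460/530 nm FRET emission ratio; % is scaled to controls: 0 for no effect and ±100 for the full control effect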
Results filed as inconclusive are left out. Active and inactive are the calls of the source. The call rests on the fitted dose curve; in most records, active means well fitted curve in either direction with a large enough effect (not every such curve was filed as active); inconclusive means small, poorly fitted or top-dose-only effect, or another doubt; inactive means flat fitted curve, though single readings scatter.
MEASURE_NAME: activity, negative = inhibition

{"COMPOUND": "CCCc1nc(N2CCOCC2)c(C#N)c2c1CCCC2", "RESULT": "-12.3% (inactive)"}
{"COMPOUND": "CC(C)Sc1nc(N2CCCC2)c2c(c1C#N)CC(C)(C)OC2", "RESULT": "-9.04% (inactive)"}
{"COMPOUND": "CCN(CC)c1nc(-c2cccc(OC)c2O)nc2ccccc12", "RESULT": "-20% (inactive)"}
{"COMPOUND": "CCOc1ccccc1N1CCN(c2nc3ccccc3nc2C(C#N)C(=O)OC)CC1 (centres undefined)", "RESULT": "-16.5% (inactive)"}
{"COMPOUND": "COc1ccc2[nH]c(C)c(C(=O)CN3CCOCC3)c2c1", "RESULT": "-2.66% (inactive)"}

Reported activity, negative = inhibition for `O=C(Nc1ccccn1)c1ccc(=O)[nH]n1` was 1.32% (inactive)

Briefly, activity, negative = inhibition measured for CCOC(=O)C1=C(C)N=C2SC(C)C(=O)N2C1c1ccc(OC(C)=O)c(OC)c1 (centres undefined) : -17.1% (inactive)

Lab book: activity, negative = inhibition of COC(=O)c1ccc(C2C(C(=O)c3cc4ccccc4o3)=C(O)C(=O)N2CCCN(C)C)cc1 (centres undefined) noted as -11.4% (inactive)
